Reported composite z-score values are given for each entry in this list.
Assay Procedure: compound binding in COS7 lysate, probe aLAP1, primary screen, cell lysate, small-molecule microarray (AID 1124);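 note: lysate comes from COS7 cells expressing LAP1 and is applied at 0.3 µg/mL; score merges spot fluorescence near 667 nm with signal-to-noise over triplicate slides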
Experimental Parameters: probe aLAP1, fluorescence, higher = more signal
Answer with a number only.

C[C@@H]1CC[C@@H](C(=O)O)N[C@H]1c1cccc(N2CCOCC2)c1 | -0.581
O=C1[C@H]2[C@H]3[C@H](O)[C@H](O)CC(=NOC[C@@H](O)COCc4ccco4)[C@@H]3CC[C@H]2C(=O)N1C1CCCCC1 | -0.0177
CCOC(=O)NN=C1C[C@@H](O)[C@@H](O)[C@@H]2[C@@H]3C(=O)N(CC)C(=O)[C@@H]3CC[C@H]12 | -0.0396
C[C@H]1CC[C@@H](C(=O)O)N[C@@H]1c1ccc(C#Cc2ccccc2)cc1 | 0.707
C=CC[C@@H]1C=C[C@H](ON=C(C)CCN2CCCc3nc(C)c(C)cc32)[C@@H](CO)O1 | 0.629
C=CC[C@@H]1C=C[C@H](ON=C[C@@H](NS(=O)(=O)c2ccc(C)cc2)[C@H](C)C=CCC(=O)OC)[C@@H](CO)O1 | 0.0555
Cc1ccc(S(=O)(=O)N[C@@H]2COC(=O)CC=C[C@@H](C)[C@H](NS(=O)(=O)c3ccc(C)cc3)COC(=O)[C@H](C)NC(=O)CC=C[C@H]2C)cc1 | -0.108
C[C@H]1CC[C@H]2C(=O)O[C@H](CO)CN2[C@@H]1c1ccc(Br)cc1 | 0.0438
COC(=O)[C@H](C)NC(=O)CCC1CC(OC(=O)NCc2cccc3ccccc23)CC2(CCCC(COC(=O)NCCC(C)C)O2)O1 (stereo not given in full) | 0.127

Note down composite z-score recorded for O=C1C=C[C@@H](O)[C@@H]2[C@@H]3C(=O)N(c4cccc(Oc5ccccc5)c4)C(=O)[C@@H]3CC[C@@H]12 -0.239

* * *

Target Or Test System: Torsin-1A-interacting protein 1 (Homo sapiens)
Assay Procedure: LAP1 binders from COS7 cell lysate, primary screen, small-molecule microarray, 635/667 nm fluorescence (AID 1116)
Experimental Parameters: COS7-hLAP1 lysate binding, 635 nm fluorescence, higher = more signal
A collection of compounds and their measured composite z-score
Enter the number alone.

Worked cases, composite z-score given:
COC(OC)[C@@H](C)[C@H](OC)[C@@H](C)[C@H](OC)c1ccccc1 | 0.0678
C#CCCCON=C1[C@H]2CCn3c(=O)n(Cc4cc5c(cc4Cl)OCO5)c(=O)n3[C@H]2[C@H](O)[C@@H]2O[C@H]12 | 0.526

Report value: composite z-score, system: Torsin-1A-interacting protein 1 (Homo sapiens), compound: COC(=O)[C@H](CCSC)NC(=O)CC=C[C@@H](C)CO 1.21

* * *

System: PRMT1 (protein arginine N-methyltransferase 1)
Assay Procedure: PRMT1 binders on small-molecule microarrays, primary screen, biochemical, small-molecule microarray, 635 nm fluorescence (AID 1088);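 note: binding of Prmt1 protein to compounds spotted on small-molecule microarray slides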
Experimental Parameters: small-molecule microarray binding, higher = more signal
Quick rule for you: composite z-score at 0.3 or higher means class 1, lower means class 0.

See these solved cases before continuing.
CCOC(=O)[C@H](CC(C)C)NC(=O)CCC1CC(OC(=O)NCc2ccc3c(c2)OCO3)CC2(CCCC(COC(=O)NCc3ccccc3)O2)O1 (stereo not given in full) | class 1
CCc1cc2c(nc1CC)CCN(CCC(C)=NOC[C@@H](C)[C@H](OCc1ccccc1)C(C)C)C2 | class 0
CCOC(=O)[C@H](CC(C)C)NC(=O)CCC1CC(OC(=O)NCCc2ccc(F)cc2)CC2(CCCC(COC(=O)NCCCN3CCCC3=O)O2)O1 (stereo not given in full) | class 1
COC(=O)C(C(=O)OC)C1CCCC(=O)C1 (stereo not given) | class 0
CCOC(=O)[C@H](Cc1ccccc1)NC(=O)CCC1CC(OC(=O)NCCc2ccc(F)cc2)CC2(CCCC(COC(=O)NCc3cccc(C(F)(F)F)c3)O2)O1 (stereo not given in full) | class 1
C=CCOCC1CN2[C@@H](CC[C@@H](C)[C@@H]2c2ccc(Br)cc2)C(=O)O1 (stereo not given in full) | class 0
COc1ccc(COC(=O)NN=C2C[C@@H](O)[C@@H](O)[C@@H]3[C@@H]4C(=O)N(C(C)(C)C)C(=O)[C@@H]4CC[C@@H]23)cc1 | class 1
CCOC(=O)CCN1C(=O)[C@H]2[C@H]3[C@H](O)[C@H](O)CC(=NOCC=C(C)CCC=C(C)C)[C@@H]3CC[C@H]2C1=O | class 1

Reported composite z-score at or above 0.3? CC(C)=NO[C@@H](C)c1cn([C@H](CO)Cc2ccccc2)nn1 class 1

Check if composite z-score >= 0.3 (inclusive). Item: CCOC(=O)[C@H](Cc1ccccc1)NC(=O)CCC1CC(OC(=O)NCc2ccc3c(c2)OCO3)CC2(CCCC(COC(=O)NCCCN3CCCC3=O)O2)O1 (stereo not given in full) class 1

Test whether the compound CC(C)(C)N1C(=O)[C@H]2[C@@H]3C(=CC[C@H]2C1=O)C(=O)[C@H]1O[C@H]1[C@H]3O records composite z-score of 0.3 or higher. class 1

* * *

Here the recorded composite z-score is given for each entry.
Target Or Test System: E3 ubiquitin-protein ligase XIAP (Homo sapiens) (UniProt P98170)
Sequence (P98170 whole entry, looked up): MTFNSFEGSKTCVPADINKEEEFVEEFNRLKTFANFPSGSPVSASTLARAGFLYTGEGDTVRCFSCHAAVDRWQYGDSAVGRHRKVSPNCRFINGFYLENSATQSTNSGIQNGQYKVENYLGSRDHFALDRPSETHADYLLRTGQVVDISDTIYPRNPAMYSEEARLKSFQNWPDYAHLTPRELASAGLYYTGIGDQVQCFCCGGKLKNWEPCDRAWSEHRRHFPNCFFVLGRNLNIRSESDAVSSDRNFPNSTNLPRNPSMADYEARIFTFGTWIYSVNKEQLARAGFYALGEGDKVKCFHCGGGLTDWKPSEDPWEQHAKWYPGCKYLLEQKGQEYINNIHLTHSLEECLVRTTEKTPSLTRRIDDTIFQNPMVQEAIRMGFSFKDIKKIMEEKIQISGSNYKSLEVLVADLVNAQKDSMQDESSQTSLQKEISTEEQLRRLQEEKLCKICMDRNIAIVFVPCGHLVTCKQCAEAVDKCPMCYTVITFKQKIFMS
Assay Procedure: XIAP binders, primary screen, biophysical, small-molecule microarray, fluorescence 635 nm (AID 1181);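 note: score merges 667 nm emission and signal to noise over triplicate slides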
Experimental Parameters: small-molecule microarray binding, higher = more signal
Note: the reply should be a number with no unit written.

Recorded results for 5 molecules are shown here.
CC(C)[C@H](NC(=O)OC(C)(C)C)[C@@H](O)CC(=O)C(C)(C)C | -0.111
CCN1C(=O)[C@H]2[C@H]3[C@H](O)[C@H](O)CC(=NO[C@@H](C)c4cc(-c5c(C)cc(C)cc5C)no4)[C@@H]3CC[C@H]2C1=O | -0.102
COC(=O)[C@@H]1CC[C@H](C)[C@@H](c2ccc(Br)cc2)N1 | 1.27
C#CCCCON=C1C[C@@H](O)[C@@H](O)[C@@H]2[C@@H]3C(=O)N(CC)C(=O)[C@@H]3CC[C@H]12 | -0.114
COc1cccc([C@H]2Oc3ccc(OC)cc3C(=NOCC[C@@H]3C=C[C@H](OC(C)=O)[C@@H](COC(C)=O)O3)[C@@H]2O)c1 | 0.0123

State composite z-score (E3 ubiquitin-protein ligase XIAP (Homo sapiens) (UniProt P98170)) of CC(C)CON=C1C[C@@H](O)[C@@H](O)[C@@H]2[C@@H]3C(=O)N(Cc4ccccc4)C(=O)[C@@H]3CC[C@H]12 . -0.0436

Give the observed composite z-score of O=C1C=C[C@@H](O)[C@@H]2[C@@H]3C(=O)N(Cc4ccccc4)C(=O)[C@@H]3CC[C@@H]12 for E3 ubiquitin-protein ligase XIAP (Homo sapiens) (UniProt P98170). -0.0566

Look up E3 ubiquitin-protein ligase XIAP (Homo sapiens) (UniProt P98170) data: composite z-score of COC(=O)[C@H](C)NC(=O)CCC1CC(OC(=O)NCCc2ccc(F)cc2)CC2(CCCC(COC(=O)NCCOc3ccccc3)O2)O1 (stereo not given in full) , then report it. -0.114

For E3 ubiquitin-protein ligase XIAP (Homo sapiens) (UniProt P98170), give the measured composite z-score of the entry CC(CCN1CCCc2nc(C)c(C)cc21)=NO[C@@H](C)c1cn([C@H](CO)Cc2ccccc2)nn1 0.115

* * *

Assay Procedure: small-molecule binders of probe aNOTCH3, primary screen, biochemical, small-molecule microarray, 635/667 nm fluorescence (AID 1120);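 note: probe is a biotin-tagged antibody raised against NOTCH3 rather than NOTCH3 protein; score merges spot fluorescence near 667 nm with spot signal to noise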
Experimental Parameters: higher = more signal
Measured composite z-score by item
Please reply with the value in numeric form only.

Hello, please tell me recorded composite z-score for this one: CCOC(=O)[C@H](CC(C)C)NC(=O)CCC1CC(OC(=O)NCCc2ccc(F)cc2)CC2(CCCC(COC(=O)NCc3cccc4ccccc34)O2)O1 (stereo not given in full) -0.235

Entry O=C1C2=CC[C@H]3C(=O)N(Cc4ccccc4)C(=O)[C@H]3[C@H]2[C@H](O)[C@@H]2O[C@H]12 needs its composite z-score filled in; supply it. -0.199

Give composite z-score for CO[C@@H]1COC(=O)[C@H](CCSC)NC(=O)CC=C[C@@H](C)COC(=O)[C@@H]2CCCN2C(=O)CC=C[C@H]1C 0.0306

Let me know recorded composite z-score for CCOC(=O)CCN1C(=O)[C@H]2[C@H]3[C@H](O)[C@H](O)CC(=NOCC=C(C)CCC=C(C)C)[C@@H]3CC[C@H]2C1=O , thanks. -0.0043

Identify composite z-score associated with the molecule CC(=O)OC[C@H]1O[C@H](CC=NO[C@@H](C)c2cc(-c3c(C)cc(C)cc3C)no2)C=C[C@@H]1OC(C)=O -0.0984

Fill in reported composite z-score for this entry: O=C1CCCC=C1C(O)c1ccc([N+](=O)[O-])cc1 (stereo not given) 0.0494

For CC(CCN1CCCc2nc(C)c(C)cc21)=NOC[C@@H](C)[C@H](OCc1ccccc1)C(C)C , write its composite z-score. -0.0918

Fill in reported composite z-score for this entry: COc1ccc2c(c1)O[C@@H](c1cccc(C(F)(F)F)c1)[C@H](O)C2=O -0.152

Dear colleague, please send me the reported composite z-score for COC(=O)[C@H](C)NC(=O)CCC1CC(OC(=O)NCc2ccc3c(c2)OCO3)CC2(CCCC(COC(=O)NCCc3ccc(Cl)cc3)O2)O1 (stereo not given in full) when you can. 0.0129

Using the record for O=C(NN=C1C[C@@H](O)[C@@H](O)[C@@H]2[C@@H]3C(=O)N(c4ccc(F)cc4F)C(=O)[C@@H]3CC[C@H]12)OCc1ccccc1 , state its measured composite z-score. 0.11
